target: MAPK14 (human) (UniProt Q16539); assay: Inhibition of TNF-alpha Release in THP-1 Cell; settings: thp1
Sequence (Q16539 whole entry, looked up): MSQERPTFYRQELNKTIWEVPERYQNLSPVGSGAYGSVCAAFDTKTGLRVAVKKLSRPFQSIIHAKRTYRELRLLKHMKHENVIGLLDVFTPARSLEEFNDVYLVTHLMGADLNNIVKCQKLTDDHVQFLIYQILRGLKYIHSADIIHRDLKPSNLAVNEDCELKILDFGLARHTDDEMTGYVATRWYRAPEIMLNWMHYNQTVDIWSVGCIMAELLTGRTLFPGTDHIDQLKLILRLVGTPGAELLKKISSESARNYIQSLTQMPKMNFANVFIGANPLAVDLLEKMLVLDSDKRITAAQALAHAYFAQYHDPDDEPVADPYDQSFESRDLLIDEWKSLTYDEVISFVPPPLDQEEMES
Give pIC50 for every item shown.
Would you please state pIC50, meaning minus log10 of the concentration in mol/L, as a bare number?

## Task Quote pIC50 reported for `O=C1NCc2nc(Sc3ccc(F)cc3F)c(N3CCN(CCN4CCCC4)CC3)cc2N1c1c(Cl)cccc1Cl` please.
## Result 8.70

## Task Please look at this molecule and report its pIC50: O=C1NCc2nc(Sc3ccc(F)cc3F)c(N3CC4CC3CN4CC3CC3)cc2N1c1c(Cl)cccc1Cl (stereo not given)
## Result 8.92

## Task Quick one: give measured pIC50 for CCN1CC2CC1CN2c1cc2c(nc1Sc1ccc(F)cc1F)CNC(=O)N2c1c(Cl)cccc1Cl (stereo not given)
## Result 8.89

## Task Provide one value: measured pIC50 of `O=C1NCc2nc(Sc3ccc(F)cc3F)c(N3CCOCC3)cc2N1c1c(Cl)cccc1Cl`
## Result 7.66

## Task Please list pIC50 recorded for the molecule CC(C)N1CC2CC1CN2c1cc2c(nc1Sc1ccc(F)cc1F)CNC(=O)N2c1c(Cl)cccc1Cl (stereo not given)
## Result 8.80

----------
biological target: UniProt Q16539; assay: Inhibition of TNF-alpha Release in THP-1 Cell; settings: thp1
Task for the reader: assign each of the following compounds its reported pIC50.
Convention used: pIC50 is expressed as -log10 of the molar concentration.

## Task Give pIC50 for the following compound: CC1CN(c2cc3c(nc2Sc2ccc(F)cc2F)CNC(=O)N3c2c(Cl)cccc2Cl)CC(C)O1 (centres undefined)
## Result 7.60

## Task Fill in reported pIC50 for this entry: `CN(C)CCN1CCN(c2cc3c(nc2Sc2ccc(F)cc2F)CNC(=O)N3c2c(Cl)cccc2Cl)CC1`
## Result 9.15

## Task Specify reported pIC50 for the compound shown: O=C1NCc2nc(Sc3ccc(F)cc3F)c(N3CC4CCC3C4)cc2N1c1c(Cl)cccc1Cl (centres undefined)
## Result 6.30

## Task For the compound `O=C1NCc2nc(Sc3ccc(F)cc3F)c(N3CCC(CCN4CCCC4)CC3)cc2N1c1c(Cl)cccc1Cl` , give its measured pIC50 value.
## Result 8.14

## Task Tell me its pIC50 given `O=C1NCc2nc(Sc3ccc(F)cc3F)c(N3CCCCC3)cc2N1c1c(Cl)cccc1Cl` as the entry.
## Result 6.30

## Task Tell us which pIC50 value is on record for `O=C1NCc2nc(Sc3ccc(F)cc3F)c(NC3CCNCC3)cc2N1c1c(Cl)cccc1Cl`
## Result 8.05

## Task Please give measured pIC50 of the following entry: `O=C1NCc2nc(Sc3ccc(F)cc3F)c(N3CCNCC3)cc2N1c1c(Cl)cccc1Cl`
## Result 8.30

## Task Quick one: give measured pIC50 for O=C1NCc2nc(Sc3ccc(F)cc3F)c(N3CC4CC3CN4)cc2N1c1c(Cl)cccc1Cl (centres undefined)
## Result 8.82

## Task Name the recorded pIC50 of the item O=C1NCc2nc(Sc3ccc(F)cc3F)c(N3CC4CC3CN4C3CC3)cc2N1c1c(Cl)cccc1Cl (centres undefined) in your answer.
## Result 8.09

----------
molecular target: MAPK14 (mouse); test: Inhibition of MAPK14 Kinase Activity
measure: IC50
Reply with the number and its unit after it.

## Task Please list IC50 recorded for the compound `O=c1ncc2nc(Sc3ccc(F)cc3F)ccc2n1-c1c(Cl)cccc1Cl`
## Result 600 nM

----------
biological target: MAPK14 (human) (UniProt Q16539); assay: Inhibition of p38 MAP Kinase in Whole Blood
Answer each item with its documented IC50.
Could you give me the number in nM? Just the number is fine.

## Task Look up and report IC50, with MAPK14 (human) (UniProt Q16539) as system, for `O=C1NCc2nc(Sc3ccc(F)cc3F)c(N3CCNCC3)cc2N1c1c(Cl)cccc1Cl`
## Result 20

## Task Give measured IC50 for CC(C)N1CC2CC1CN2c1cc2c(nc1Sc1ccc(F)cc1F)CNC(=O)N2c1c(Cl)cccc1Cl (stereo not given) (MAPK14 (human) (UniProt Q16539)).
## Result 65

## Task Look up MAPK14 (human) (UniProt Q16539) data: IC50 of `CC(C)N1CCN(c2cc3c(nc2Sc2ccc(F)cc2F)CNC(=O)N3c2c(Cl)cccc2Cl)CC1` , then report it.
## Result 170

## Task Give MAPK14 (human) (UniProt Q16539) IC50 for the following compound: `O=C1NCc2nc(Sc3ccc(F)cc3F)c(OC3CCNCC3)cc2N1c1c(Cl)cccc1Cl`
## Result 63

## Task Jot down IC50 (MAPK14 (human) (UniProt Q16539)) of `O=C1NCc2nc(Sc3ccc(F)cc3F)c(N3CCOCC3)cc2N1c1c(Cl)cccc1Cl` .
## Result 400
